System: MKN45
protocol text: Inhibition of cell viability (MTS), MKN45
Assay type: cell-based
particulars: Homo sapiens, MKN-45, 96 h, MKN45 cells, 96 hours incubation
Method: Cells were maintained at 37° C. in a humidified atmosphere containing 5%-8% CO2 following the instructions of the supplier (American Type Culture Collection (Rockville, Md.)). Inhibition of cell viability was determined for a panel of tumor cell lines (MKN45, EBC1 and A549), using the soluble tetrazolium salt, MTS (Promega, Madison, Wis.). […] EC50 values may be calculated by non-linear curve fitting of the compound concentrations and fluorescence intensities to the standard EC50 equation.
For each entry below, report its EC50 value.

| compound | measurement target | result |
| --- | --- | --- |
| N#Cc1ccc(-c2ccc3nnc(C(F)(F)c4ccc5nc(NC(=O)C6CC6)cn5n4)n3c2)cc1 | MKN45 | < 30 nM |
| Nc1cn2nc(Sc3nnc4ccccn34)ccc2n1 | MKN45 | > 630 nM |
| CC(C)CNC(=O)c1ccc2nnc(Sc3ccc4nc(NC(=O)C5CC5)cn4n3)n2c1 | MKN45 | > 630 nM |
| CC(c1ccc2nc(NC(=O)C3CC3)cn2n1)c1nnc2ccc(-c3ccc(S(C)(=O)=O)cc3)cn12 (centres unmarked) | MKN45 | 60 to 100 nM |
| COc1cccc(-c2ccc3nnc(Sc4ccc5nc(NC(=O)C6CC6)cn5n4)n3c2)n1 | MKN45 | 100 to 249 nM |
| CC(c1ccc2nc(NC(=O)C3CC3)cn2n1)c1nnc2ccc(-c3ccc(C#N)cc3)cn12 (centres unmarked) | MKN45 | < 30 nM |

Batch of 2 compounds: report EC50 for each.
1. C=C(C)c1ccc2nnc(Sc3ccc4nc(NC(=O)C5CC5)cn4n3)n2c1
2. O=C(Nc1cn2nc(Sc3nnc4ccc(-c5csc(N6CCOCC6)n5)cn34)ccc2n1)C1CC1

OUTPUT:
1. < 100 nM
2. 100 to 249 nM
